Parameter GI50, tested on HCT-15, listed per item.

compound: Cc1cc(O)c(C(C)C)cc1C1(c2cc(C(C)C)c(O)cc2C)OC(=O)c2ccccc21
GI50: 2 µM
--
compound: Cc1ccc(S(=O)(=O)n2cncc2CO)cc1
GI50: > 100 µM
--
compound: COc1cc(S(=O)(=O)Nc2nc(-c3ccc(N4C(=O)CSC4c4cccs4)cc3)cs2)ccc1Cl (stereo not given)
GI50: 22.8 µM
--
compound: O=[N+]([O-])/C(C(Cl)=C(Cl)Cl)=C(/Nc1cccc2cccnc12)n1nnc2ccccc21
GI50: 10.8 µM
--
compound: NC1=NCN(C2OC(CO)C(O)C2O)C(=O)N1 (stereo not given)
GI50: 4.5 µM
